system: SK-OV-3; experiment: Antiproliferative activity against human SK-OV-3 cells incubated for 48 hrs by CCK8 assay; type: functional, cell-based; details: SK-OV-3, 48 h
Entries and their measured pIC50 follow.
A value of pIC50 is the negative decimal logarithm of a concentration given in moles per litre.

COc1ccc(N(C)c2nc(Cl)nc3c2ccn3C)cc1; 7.63
COc1ccc(Sc2nc(Cl)nc3ccsc23)cc1; 7.42
COc1ccc(N(C)c2nc(Cl)nc3cc[nH]c23)cc1; 8.04
CN(c1ccc(OC(F)(F)F)cc1)c1nc(Cl)nc2ccsc12; 6.99
COc1ccc2c(c1)NC(=O)CN2c1nc(Cl)nc2ccsc12; 9.51

[Q] For the molecule COc1cc2c(c(OC)c1OC)-c1ccc(OC)c(=O)cc1[C@@H](NC(C)=O)CC2 , give its reported pIC50.
[A] 7.99

[Q] For the molecule COc1ccc(N(C)c2nc(N)nc3ccsc23)cc1 , give its reported pIC50.
[A] 7.46

[Q] For the molecule COc1ccc(/C=C\c2cc(OC)c(OC)c(OC)c2)cc1O , give its reported pIC50.
[A] 8.85

[Q] For the molecule COc1cc(OC)cc(N(C)c2nc(Cl)nc3ccsc23)c1 , give its reported pIC50.
[A] 6.58

[Q] For the molecule COc1ccc(N(C)c2nc(C)nc3ccsc23)cc1 , give its reported pIC50.
[A] 8.21

[Q] For the molecule COc1ccc(N(C)c2nc(Cl)nc3[nH]ccc23)cc1 , give its reported pIC50.
[A] 7.41

[Q] For the molecule COc1cccc(N(C)c2nc(Cl)nc3ccsc23)c1 , give its reported pIC50.
[A] 7.33

[Q] For the molecule COc1ccc(N(C)c2nc(Cl)nc3sccc23)cc1 , give its reported pIC50.
[A] 8.31

[Q] For the molecule CN(c1ccc2c(c1)OCO2)c1nc(Cl)nc2ccsc12 , give its reported pIC50.
[A] 6.77

[Q] For the molecule COc1ccc(N(C)c2nc(N(C)C)nc3ccsc23)cc1 , give its reported pIC50.
[A] 7.29

[Q] For the molecule CC(=O)O[C@H]1C(=O)[C@@]2(C)[C@H]([C@H](OC(=O)c3ccccc3)[C@]3(O)C[C@H](OC(=O)[C@H](O)[C@@H](NC(=O)c4ccccc4)c4ccccc4)C(C)=C1C3(C)C)[C@]1(OC(C)=O)CO[C@@H]1C[C@@H]2O , give its reported pIC50.
[A] 8.92

[Q] For the molecule Cc1nn(C)c2ccc(N(C)c3nc(Cl)nc4ccsc34)cc12 , give its reported pIC50.
[A] 7.85

[Q] For the molecule COc1ccc(N(C)c2ncnc3ccsc23)cc1 , give its reported pIC50.
[A] 7.35

[Q] For the molecule COc1ccc(N(C)c2nc(Cl)nc3ccn(C)c23)cc1 , give its reported pIC50.
[A] 8.88

[Q] For the molecule COc1ccc(N(C)c2nc(Cl)nc3ccsc23)cc1 , give its reported pIC50.
[A] 8.23

[Q] For the molecule COc1c(F)cc(N(C)c2nc(Cl)nc3ccsc23)cc1F , give its reported pIC50.
[A] 7.50

[Q] For the molecule COc1ccc(N(C)c2nc(N3CCC3)nc3ccsc23)cc1 , give its reported pIC50.
[A] 7.23

[Q] For the molecule COc1ccc(N(C)c2nc(NC3CCC3)nc3ccsc23)cc1 , give its reported pIC50.
[A] 7.04
